Target: NKp30 on human NK cells (human) (UniProt O14931)
Sequence (O14931 19-201): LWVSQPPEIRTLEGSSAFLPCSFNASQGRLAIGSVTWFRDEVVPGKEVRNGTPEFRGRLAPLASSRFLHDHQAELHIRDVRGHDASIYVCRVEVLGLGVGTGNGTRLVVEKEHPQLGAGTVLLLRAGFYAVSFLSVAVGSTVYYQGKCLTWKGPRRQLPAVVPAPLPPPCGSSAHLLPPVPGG
Assay: cell-based or functional assay
measuredMetric: Max. Killing (% Lysis), MNC based killing of A431 cells, E:T 80:1

binder	valueReported
VHH9 SEEDbody eff- (bispecific antibody, part only; not given: silenced SEED Fc and cetuximab Fab, V domains shown, not shown: another chain or arm of the molecule; a dimerising Fc or GST) VHH: DVQLQESGGGLVQAGGSLRLSCAASGRGGASYAMGWFRQAPGKEREFVAAISWTGDTTYNVDSVKGRFTISSDNAKNPVYLDMSSLKPEDTAVYYCAAAHWTRVVAKGAMADEKKYEYWGQGTQVTVSS	53
VHH5 SEEDbody eff- (bispecific antibody, part only; not given: silenced SEED Fc and cetuximab Fab, V domains shown, not shown: another chain or arm of the molecule; a dimerising Fc or GST; small tags and cut ends) VHH: DVQLQESGGGLVQPGESLRLSCLVSGVTYHFYDITWFRQAPGLEREGVSCISYASGSTKFADSVKGRFTISRDNAKNAVYLQMNSLKPEDTAVYFCATQGSGSCSDFMSADSVLSWGQGTQVTVSS	56
VHH8 SEEDbody eff- (bispecific antibody, part only; not given: silenced SEED Fc and cetuximab Fab, V domains shown, not shown: another chain or arm of the molecule; a dimerising Fc or GST; small tags and cut ends) VHH: DVQLQESGGGLAQPGGSLRLSCAASGFTFSSYDMGWYRQAPGKECELVAAIFSADGSTIYADSVKGRFTISSDNAKNTVFLQMNSLKPEDTAVYYCNKAPPFTTIQPMCVMIDTQLGAWGQGTQVTVSS	50
VHH6 SEEDbody eff- (bispecific antibody, part only; not given: silenced SEED Fc and cetuximab Fab, V domains shown, not shown: another chain or arm of the molecule; a dimerising Fc or GST; small tags and cut ends) VHH: DVQLQESGGGLVQTGGSLRLSCAASGLPFSKYAIAWFRQAPGKESEFLVVVSWSGDKFYQDNMKGRCTISRDNAKNTAYLQINSLQPEDTAVYYCAASGSYPVTDRYFYNFWGQGTQVTVSS	42
